Provenance of the data: ChEMBL document CHEMBL3988442

tested on: Trypanosoma brucei; test: Trypanosoma brucei 72 hour study; type: functional, organism-based; set-up: scale not given: in the data most compounds retested in dose-response had high values; conditions: 30 µM; 30.03 µM
The campaign covered roughly 66,000 compounds. About 960 (1.5%) showed an effect of 50% or more. For the sample, strong results were picked, then their nearest neighbours and some compounds at random.
Grouping by measured Percent Effect is done with the following cut points: label 0: < -10%; label 1: ≥ -10% and < 20%; label 2: ≥ 20%

Lab note: which band did COc1ccc(C2Nc3ccccc3C3=NCCCN32)cc1OC (centres undefined) land in?
label 1

Thanks! And CN(C)c1ccc(C(CNS(=O)(=O)c2cccs2)N2CCCC2)cc1 (centres undefined) ?
label 0

Thanks! And COc1ccc(-n2cnnc2SCC(=O)NC(C)C)cn1 ?
label 2

Thanks! And c1ccc(-c2cc(CN3C[C@@H]4CC[C@H](C3)N(CC3CCC3)C4)on2)cc1 ?
label 2

Thanks! And CC(=O)Nc1nc(CN2CCCCC2Cn2cccn2)cs1 (centres undefined) ?
label 1

Thanks! And COc1cccc(-c2noc(-c3ccc(NCC(C)C)nc3)n2)c1OC ?
label 1

Thanks! And COc1cccc(-c2noc(-c3ccc(NCC4CC4)nc3)n2)c1OC ?
label 2

Thanks! And COCC1c2c(cnn2CC2CC2)CCN1Cc1nccs1.O=C(O)C(F)(F)F.O=C(O)C(F)(F)F (centres undefined) ?
label 2

Thanks! And CCCn1cc(S(=O)(=O)N[C@H]2CN(CCO)C[C@@H]2C2CC2)cn1 ?
label 0

Thanks! And Cl.O=C(NCc1ccc(Cl)cc1)C1=NOC2(CCNC2)C1 (centres undefined) ?
label 1

Thanks! And COc1ccc(C2Nc3cc(Cl)ccc3C3=NCCN32)cc1OC (centres undefined) ?
label 2

Thanks! And CCCn1cc(-c2cc(-c3cc(CC)n[nH]3)c(C#N)c(N)n2)c(C)n1 ?
label 2

Thanks! And Fc1ccccc1Sc1ccccc1CNC1=NCCN1.I ?
label 1

Thanks! And COc1cc(CNC(=O)NCc2c(C)cc(C)[nH]c2=O)ccc1C ?
label 1

Thanks! And Clc1ccc(CN2CCCC(Cn3cncn3)C2)c2ncccc12 (centres undefined) ?
label 0

Thanks! And COCC1CN(Cc2ccoc2)Cc2nnn(C)c21.O=C(O)C(F)(F)F (centres undefined) ?
label 0

Thanks! And CNC(=O)CN1CCOCC2(C1)CN(C(=O)CC(C)C)CCO2.O=C(O)C(F)(F)F (centres undefined) ?
label 0

Thanks! And CCCc1nc(CN2CCCC2Cn2cncn2)cs1 (centres undefined) ?
label 1

Thanks! And CC(=O)Nc1nc(CN2CCCC2Cn2cncn2)cs1 (centres undefined) ?
label 1

Thanks! And COc1cc(OC)c(C2Nc3cc(Cl)ccc3C3=NCCN32)cc1OC (centres undefined) ?
label 1

Thanks! And c1ccc(-c2nnc(CN3C[C@@H]4CC[C@H](C3)N(CC3CCC3)C4)o2)cc1 ?
label 0

Thanks! And c1ccc(-c2cc(CN3C[C@@H]4CC[C@H](C3)N(CC3CC3)C4)on2)cc1 ?
label 0

Thanks! And CN(C)C(=O)Cc1nc(CN2CCCCC2Cn2cccn2)cs1 (centres undefined) ?
label 0

Thanks! And CC(C)CS(=O)(=O)N1CCC2(CN(c3ccsc3)C(=O)CN2C)C1.O=C(O)C(F)(F)F (centres undefined) ?
label 0

Thanks! And COCCN1C(=O)C[C@H]2[C@H]1CCN2Cc1ccc(OC)cc1.O=C(O)C(F)(F)F ?
label 0

Thanks! And CCC(C)Sc1nncn1-c1ccc(OC)nc1 (centres undefined) ?
label 2

Thanks! And CC(Nc1ccc(C#N)cc1F)c1cccc(S(N)(=O)=O)c1 (centres undefined) ?
label 2

Thanks! And CN(CCOc1cccc(S(C)(=O)=O)c1)c1ccccc1 ?
label 1

Thanks! And CC(Nc1c(F)cc(C#N)cc1F)c1cccc(S(N)(=O)=O)c1 (centres undefined) ?
label 2

Thanks! And Cc1nonc1CN(C)c1nc(-c2ccco2)nc2c1CCN(C)CC2 ?
label 0

Thanks! And Cc1nc(CNc2nc(-c3ccco3)nc3c2CCNCC3)n[nH]1 ?
label 1

Thanks! And Cc1c(CN2CC[C@@H](N3CCC(O)CC3)[C@H](O)C2)[nH]c2ccc(Cl)cc12 ?
label 0

Thanks! And CCOC(=O)N1CCN(C(=O)c2sc(-c3ccccc3F)nc2C)CC1 ?
label 2

Thanks! And COc1ccc(CNC(=O)NCc2c(C)cc(C)[nH]c2=O)cc1 ?
label 2

Thanks! And c1ccc(-c2nnc3sc(CCN4CCCC4)nn23)cc1 ?
label 0

Thanks! And Clc1ccc2cccnc2c1CN1CCCC(Cn2cncn2)C1 (centres undefined) ?
label 2

Thanks! And CC(Nc1cccc(F)c1C#N)c1cccc(S(N)(=O)=O)c1 (centres undefined) ?
label 2

Thanks! And CNC(=O)N1C[C@H]2C[C@H](C(=O)NCc3cccnc3)[C@@H](C1)O2.O=C(O)C(F)(F)F ?
label 2

Thanks! And NC(=O)C1CCCN1Cc1cccc(NC(=O)c2ccsc2)c1 (centres undefined) ?
label 1

Thanks! And CCN(CC)CC1CN(CCc2ccccc2)Cc2nccn2C1.O=C(O)C(F)(F)F.O=C(O)C(F)(F)F (centres undefined) ?
label 0

Thanks! And Cc1ccnc(NC(=O)C2CCN(CCCn3ccnc3)CC2)c1 ?
label 1

Thanks! And CC(=O)N1CCN(C(=O)c2sc(-c3ccccc3F)nc2C)CC1 ?
label 0

Thanks! And COCC1c2c(cnn2CC2CC2)CCN1Cc1cccs1.O=C(O)C(F)(F)F.O=C(O)C(F)(F)F (centres undefined) ?
label 0

---

tested on: Trypanosoma brucei; experiment: Trypanosoma brucei 72 hour study; type: functional, organism-based; parameters: scale not given: in the data most compounds retested in dose-response had high values; settings: 30 µM; 30.03 µM
The campaign covered roughly 66,000 compounds. About 960 (1.5%) showed an effect of 50% or more. The full list was thinned out, with strong results kept by preference.
Entries whose Percent Effect is below -10% take Y; entries at or above -10% take N.

State whether -10% exceeds Percent Effect recorded for CN1CCC2(CC1)CN(C(=O)c1cnccn1)Cc1ccccc12.O=C(O)C(F)(F)F .
N

Thanks! And CC(CN1CCC2(CC1)N=C(c1cccnc1)NC2=O)c1ccccc1 (stereo not drawn) ?
N

Thanks! And O=C(O)c1cc(-c2ccoc2)cc(S(=O)(=O)NC2CC2)c1 ?
N

Thanks! And COc1ccc(C(C)NCCC(N)=O)cc1F (stereo not drawn) ?
Y

Thanks! And CC(C)NC(=O)c1ccc2c(c1)nc1n2CCN(c2ccccc2)C1 ?
N

Thanks! And Cc1ccc(C(=O)NS(C)(=O)=O)cc1S(C)(=O)=O ?
N

Thanks! And CCOc1ccc(C(=O)N2CCCC(c3nccn3C)C2)cc1OCC (stereo not drawn) ?
Y

Thanks! And CN(C)c1ccc(-c2cc(C(=O)O)cc(S(=O)(=O)NC3CC3)c2)cc1 ?
N

Thanks! And COCc1noc(Cn2c(=O)[nH]c3ccccc32)n1 ?
Y

Thanks! And COC[C@@H]1CCC[C@@]12CN(Cc1ccco1)CCO2.O=C(O)C(F)(F)F ?
N

Thanks! And O=C(O)c1cc(-c2ccc3c(c2)OCO3)cc(S(=O)(=O)NC2CC2)c1 ?
Y

Thanks! And Cc1ncsc1CN1C[C@@H]2COC[C@]2(C(=O)NCC2CC2)C1.O=C(O)C(F)(F)F ?
Y

Thanks! And Cc1ccc(C(=O)N2CCC3(CCN3c3ncccn3)C2)cn1.O=C(O)C(F)(F)F (stereo not drawn) ?
Y

Thanks! And CN(CCO)C[C@@H]1CN(C2CCN(c3ccccc3Cl)CC2)C[C@@H]1CO ?
N

Thanks! And Cl.NC(C(=O)N1CCSc2ccccc2C1)c1ccccc1 (stereo not drawn) ?
N

Thanks! And CC(C)NC(=O)c1ccc2c(c1)nc1n2CCN(C(C)C)C1 ?
Y

Thanks! And CCC1CN(C)c2ccccc2CN1CCn1cncn1 (stereo not drawn) ?
N

Thanks! And CN1CC2(CCCN(Cc3nnc(-c4ccccc4)o3)CC2)OC1=O (stereo not drawn) ?
Y

Thanks! And CCOC(=O)C1CCN(Cc2csc(C(C)(C)C)n2)CC1 ?
N

Thanks! And CC1CN(C)c2ccccc2CN1CCn1cncn1 (stereo not drawn) ?
Y

Thanks! And Cc1nc(CN2CC3(CCN(c4ncccn4)C3)CC2=O)cs1.O=C(O)C(F)(F)F (stereo not drawn) ?
Y

Thanks! And COCCNc1cc(-c2cccc(C(=O)O)c2C)c2cc[nH]c2n1 ?
Y

---

tested on: Trypanosoma brucei; test: Trypanosoma brucei 72 hour study; format: functional, organism-based; parameters: scale not given: in the data most compounds retested in dose-response had high values; conditions: 30.3 µM; […]
The whole screen tested about 66,000 compounds, of which about 960 (1.5%) showed an effect of 50% or more. The sample as a whole holds a higher share of strong results than the screen did.
Exercise: for every item that follows, state its recorded Percent Effect.
Answer format: numeric, % implied, no suffix.

Suppose we examine the compound Cl.O=C(O)C1(Cc2cccc(-c3cccs3)c2)CCCNC1 (stereo unspecified) ; what Percent Effect value has been reported?
-23.63

Thanks! And COc1ccc(C2=CCN(C(=O)C3CCC3)CC2)cc1 ?
-20.1

Thanks! And Cc1ccc(N2CCc3sc(C(=O)N4CCOCC4)cc32)nn1 ?
-27.02

Thanks! And COc1cc([C@@H]2N[C@H](c3nccs3)Cc3ccsc32)cc(OC)c1OC ?
-6.656

Thanks! And Cc1ccc(CC(=O)Nc2cc(C(C)C)n[nH]2)cn1 ?
101.5

Thanks! And Cl.Fc1ccc(-c2cnc(C3CCCN3)cn2)cc1 (stereo unspecified) ?
19.97

Thanks! And Cl.O=C(O)C1(Cc2ccc(-c3cccs3)cc2)CCNC1 (stereo unspecified) ?
15.36

Thanks! And N#Cc1cccc(CN2C[C@H](NC(=O)C3CC3)[C@H]3OCCC[C@H]32)c1.O=C(O)C(F)(F)F ?
-35.12

Thanks! And CCCN(Cc1cnc2ccccc2n1)Cc1ccccc1OC ?
99.59

Thanks! And O=C(NCCN1CCCC1)c1cc2c(s1)CCN2c1ncccn1 ?
35.85

Thanks! And CC(C)c1cc(NC(=O)c2ccncc2)[nH]n1 ?
16.87

Thanks! And CCOc1cc([C@H]2N[C@@H](c3nc(C)cs3)Cc3ccsc32)ccc1OC ?
85.49

Thanks! And Cc1cccc(OC2CCN(c3nccnc3C#N)CC2)n1 ?
-52.89

Thanks! And Cc1nc(C)n(CC2CCCN(c3ncnc4ccccc34)C2)n1 (stereo unspecified) ?
12.87

Thanks! And Cc1cc(F)cc2c(N3CCS(=O)(=O)CC3)c(C#N)cnc12 ?
6.61

Thanks! And Cl.O=C(N1CCCC1)C1(Cc2ccc(-c3cccs3)cc2)CCNC1 (stereo unspecified) ?
100.9

Thanks! And CC(C)NC(=O)C1(Cc2ccccc2-c2ccccc2)CCCNC1 (stereo unspecified) ?
-11.23

Thanks! And CC(C)c1cc(N2CC[C@H](F)C2)n2nccc2n1 ?
99.84

Thanks! And CC(C)CNC(=O)C1(Cc2ccccc2-c2cccs2)CCNC1 (stereo unspecified) ?
100.9

Thanks! And Cc1ccc(-c2ccccc2CC2(C(=O)NC(C)C)CCCNC2)cc1 (stereo unspecified) ?
73.8

Thanks! And Cc1cccc(OC2CCN(c3ncc(C#N)cc3Cl)CC2)n1 ?
2.665

Thanks! And CC(C)NC(=O)C1(Cc2ccccc2-c2cccs2)CCNC1 (stereo unspecified) ?
100.3

Thanks! And CC(C)c1cc(NC(=O)c2cccnc2)[nH]n1 ?
11.06

Thanks! And CC(C)c1cc(N2CCC[C@H](N)C2)n2nccc2n1 ?
-37.71

Thanks! And CC(C)c1cc(N2CCSCC2)n2nccc2n1 ?
-15.7

Thanks! And CC(C)COc1cncc(N(C)C2CCN(c3ncccn3)CC2)n1 ?
90.23

Thanks! And O=C(NCCO)C1(Cc2ccccc2-c2ccncc2)CCOCC1 ?
-12.36

Thanks! And COc1ccc(C(C)(C)C)cc1CN1CCn2c(CO)nnc2C1.O=C(O)CC(O)(CC(=O)O)C(=O)O ?
3.045

Thanks! And CC(C)c1cc(N2CCC(C(C)N3CCCC3)CC2)n2nccc2n1 (stereo unspecified) ?
88.53

Thanks! And CCN(Cc1nc2c(cnn2C)c(=O)[nH]1)c1cc(C)cc(C)c1 ?
-21.13

Thanks! And COCCN1CCC2(CCC(=O)N2Cc2csc(C)n2)CC1.O=C(O)C(F)(F)F.O=C(O)C(F)(F)F ?
-13.8

Thanks! And CCn1cc(N2Cc3nc(N4CCC(C)CC4)ncc3C2=O)cn1 ?
-21.22

Thanks! And CCCN(Cc1ccccn1)Cc1ccccc1OC ?
-7.297

Thanks! And Cc1ccc(N2CCc3sc(C(=O)NCCN4CCCC4)cc32)nn1 ?
54.03

Thanks! And COCCN1CCC2(CC1)CC(NC(=O)C1CC1)c1ccccc1O2.O=C(O)C(F)(F)F (stereo unspecified) ?
-14.66

Thanks! And NC(=O)C1(Cc2ccccc2-c2cncnc2)CCCNC1 (stereo unspecified) ?
-3.769

Thanks! And Cc1cc(C)n(-c2nc(C(=O)NCCN3CCC(C)CC3)cs2)n1 ?
41.67

Thanks! And CCOc1cc([C@@H]2N[C@H](c3nccs3)Cc3ccsc32)ccc1OC ?
9.707

Thanks! And O=c1[nH][nH]cc1-c1ccnc(NCCc2cccc(O)c2)n1 ?
-16.62

Thanks! And CCOC(=O)[C@@H]1[C@@H](OC)C(=O)N(C)C12CCN(C(=O)C(CC)CC)CC2 ?
47.28

Thanks! And CC(=O)N1CCCC2(C1)CN(c1nncs1)CCO2.O=C(O)C(F)(F)F (stereo unspecified) ?
-90.31

Thanks! And COc1cccc(-c2cnc(C3CCNCC3)cn2)c1 ?
-29.22

Thanks! And Cc1ccc(CN2C[C@H](NC(=O)c3nccn3C)[C@H]3OCCC[C@H]32)o1 ?
-18.85

Thanks! And Cl.O=C(O)[C@@H]1CCCN1c1nccc(Nc2ccccc2)n1 ?
-31.15

Thanks! And CC(=O)N1CCC2(C=C(C(=O)NC3CC3)c3ccccc32)CC1 ?
3.653

Thanks! And O=C(c1ccccn1)N1CCCC(c2cc(C(F)F)n3ncnc3n2)C1 (stereo unspecified) ?
-6.514
